experiment_notes: Stability of cannabinoid and Vitamin E components of Beverage 1 (AB White) stored at 8° C. and 21-25° C., LCMSMS over 570 days
Assay type: physicochemical
condition_info: beverage stored at 8° C., day 0
molecules and their reported Stability in AB White, 8° C. (content by LCMSMS)
measured_attribute: Stability in AB White, 8° C. (content by LCMSMS) (µg/mL)

{"molecule": "CCCc1cc(O)c2c(c1)OC(C)(C)[C@@H]1CCC(C)=C[C@@H]21 [THCV, delta-9-tetrahydrocannabivarin]", "reported_measurement": 3.6}
{"molecule": "C=C(C)[C@@H]1CCC(C)=C[C@H]1c1c(O)cc(CCCCC)c(C(=O)O)c1O [CBDA, cannabidiolic acid]", "reported_measurement": 1.75}
{"molecule": "CCCCCc1cc(O)c2c(c1)OC(C)(C)c1ccc(C)cc1-2 [CBN, cannabinol]", "reported_measurement": 2.79}
